test: BET inhibitor-based combinations targeting novel dependencies in MECOM-rearranged (r) AML: UCSD-AML1 cell line (AID 2202235); further: nearly all actives have a fitted effect of over 40% in size
experimental.parameters: UCSD-AML1 AML cells viability, CellTiter-Glo, 48 h; series mostly up to 46 µM
Records with an inconclusive call do not appear. Calls of active or inactive are those of the source. The call rests on the fitted dose curve; in most records, active means well fitted inhibition curve with a large enough effect; inconclusive means small, poorly fitted or top-dose-only effect; inactive means no such curve, though single readings can be large or run the other way.
Please reply with one of these outcomes: active, inactive

- given.smiles: "C[C@H]1[C@H](C)CC[C@]2(C(=O)O)CC[C@]3(C)C(=CC[C@@H]4[C@@]5(C)CC[C@H](O)C(C)(C)[C@@H]5CC[C@]43C)[C@H]12"
  assigned.class: "inactive"
- given.smiles: "COC1=C(OC)C(=O)C(C/C=C(\\C)CC/C=C(\\C)CC/C=C(\\C)CC/C=C(/C)CC/C=C(\\C)CC/C=C(\\C)CC/C=C(\\C)CC/C=C(\\C)CC/C=C(\\C)CCC=C(C)C)=C(C)C1=O"
  assigned.class: "inactive"

Exam item: Outcome? `COc1cc2c3c(n(CCCNCCO)c(=O)c2cc1OC)-c1cc2c(cc1C3=O)OCO2`
Marked response: active

====

test: BET inhibitor-based combinations targeting novel dependencies in MECOM-rearranged (r) AML: AML-194 cell line (AID 2202237; further: nearly all actives have a fitted effect of over 40% in size)
experimental.parameters: AML-194 (MECOM-r AML) viability, CellTiter-Glo, 48 h; series mostly up to 46 µM
Results filed as inconclusive are left out. The source made the active and inactive calls. The call rests on the fitted dose curve; in most records, active means well fitted inhibition curve with a large enough effect; inconclusive means small, poorly fitted or top-dose-only effect; inactive means flat fitted curve, though single readings scatter.
Please reply with one of these outcomes: 1 = active, -1 = inactive

Exam item: Outcome? C[C@H]1O[C@H](O[C@H]2[C@H](O)[C@@H](O)[C@@H](O[C@H]3[C@H](O)[C@@H](O)C(O)O[C@@H]3CO)O[C@@H]2CO)[C@H](O)[C@@H](O)[C@@H]1N[C@H]1C=C(CO)[C@@H](O)[C@H](O)[C@H]1O (some centres undefined)
Marked response: -1

Exam item: Outcome? `CN(C)Cc1ccc(S(=O)(=O)n2ccc(/C=C/C(=O)NO)c2)cc1`
Marked response: 1

Exam item: Outcome? `O=C(O)CCCCN(CCc1ccccc1OCc1ccc(CCc2ccccc2)cc1)Cc1ccc(C(=O)O)cc1`
Marked response: -1

Exam item: Outcome? `CCS(=O)(=O)Nc1ccc(Oc2ccc(F)cc2F)c(-c2cn(C)c(=O)c3[nH]ccc23)c1`
Marked response: 1

Exam item: Outcome? `COc1cc(C(=O)O)ccc1NC(=O)[C@@H]1N[C@@H](CC(C)(C)C)[C@](C#N)(c2ccc(Cl)cc2F)[C@H]1c1cccc(Cl)c1F`
Marked response: 1

Exam item: Outcome? `CC(=O)NCC(=O)N1[C@@H]2CC[C@H]1c1ccc(Nc3ncc(C(F)(F)F)c(NC4CCC4)n3)cc12`
Marked response: 1

Exam item: Outcome? `CC(C)=CCC/C(C)=C/CC/C(C)=C/CSc1ccccc1C(=O)O`
Marked response: -1

Exam item: Outcome? `O=C(CCc1ccc(O)cc1)c1c(O)cc(O)cc1O[C@@H]1O[C@H](CO)[C@@H](O)[C@H](O)[C@H]1O`
Marked response: -1

Exam item: Outcome? CCCCCCCCCCCC(CC1OC(=O)C1CCCCCC)OC(=O)C(CC(C)C)NC=O (centres undefined)
Marked response: -1

Exam item: Outcome? CCCCNc1ncc2c(-c3ccc(F)cc3)nn(CC3CCC(N)CC3)c2n1 (centres undefined)
Marked response: 1

Exam item: Outcome? `CC[C@@]1(O)C(=O)OCc2c1cc1n(c2=O)Cc2c-1nc1cc(F)c(C)c3c1c2[C@@H](N)CC3`
Marked response: 1

Exam item: Outcome? `CC[C@H]1OC(=O)[C@H](C)C(=O)[C@H](C)[C@@H](O[C@H]2O[C@H](C)C[C@H](N(C)C)[C@H]2O)[C@](C)(OC)C[C@@H](C)C(=O)[C@H](C)[C@H]2N(CCCCn3cnc(-c4cccnc4)c3)C(=O)O[C@]12C`
Marked response: -1

Exam item: Outcome? `Cc1ccc(F)c(NC(=O)Nc2ccc(-c3cccc4[nH]nc(N)c34)cc2)c1`
Marked response: 1

Exam item: Outcome? `CC(=O)N[C@H]1[C@H](O[C@@H]2c3ccc(c(Cl)c3)Oc3cc4cc(c3O[C@@H]3O[C@H](CO)[C@@H](O)[C@H](O)[C@H]3NC(=O)CCCCCCCC(C)C)Oc3ccc(cc3Cl)C[C@H]3NC(=O)[C@H](N)c5ccc(O)c(c5)Oc5cc(O)cc(c5)[C@H](NC3=O)C(=O)N[C@H]4C(=O)N[C@H]3C(=O)N[C@@H]2C(=O)N[C@@H](C(=O)O)c2cc(O)cc(O[C@H]4O[C@H](CO)[C@@H](O)[C@H](O)[C@@H]4O)c2-c2cc3ccc2O)O[C@H](CO)[C@@H](O)[C@@H]1O`
Marked response: -1

====

test: BET inhibitor-based combinations targeting novel dependencies in MECOM-rearranged (r) AML: UCSD-AML1 cell line (AID 2202235); further: nearly all actives have a fitted effect of over 40% in size
experimental.parameters: UCSD-AML1 AML cells viability, CellTiter-Glo, 48 h; series mostly up to 46 µM
Inconclusive results are not listed. The source made the active and inactive calls. Calls come from the whole dose curve; as a rule, active = well fitted inhibition curve with a large enough effect; inconclusive = small, poorly fitted or top-dose-only effect; inactive = no such curve, though single readings can be large or run the other way.
Please reply with one of these outcomes: True = active, False = inactive

Exam item: Outcome? `C=CC(=O)N1CC/C(=C\c2ccc(F)c([N+](=O)[O-])c2)C(=O)/C(=C/c2ccc(F)c([N+](=O)[O-])c2)C1`
Marked response: True

Exam item: Outcome? O=C(O)CC(C(=O)O)n1c(O)c(C2=c3cc(Br)ccc3=NC2=O)sc1=S (stereo not drawn)
Marked response: False

Exam item: Outcome? `CC[C@H]1OC(=O)[C@H](C)C(=O)[C@H](C)[C@@H](O[C@H]2O[C@H](C)C[C@H](N(C)C)[C@H]2O)[C@](C)(OC)C[C@@H](C)C(=O)[C@H](C)[C@H]2N(CCCCn3cnc(-c4cccnc4)c3)C(=O)O[C@]12C`
Marked response: False

Exam item: Outcome? `CCN(C)S(=O)(=O)Nc1ccc(F)c(C(=O)c2c[nH]c3ncc(-c4cnc(C5CC5)nc4)cc23)c1F`
Marked response: True

Exam item: Outcome? `CN1C(N)=N[C@](C)(c2cc(NC(=O)c3ccc(F)cn3)ccc2F)CS1(=O)=O`
Marked response: False

Exam item: Outcome? `O=C(NCc1ccncc1)C12C[C@H]3C[C@@H](C1)CC(c1ccc(Cl)cc1)(C3)C2`
Marked response: False

Exam item: Outcome? `COC[C@@H](c1ccc(C(F)(F)F)cc1)N1CCN(C2(C)CCN(C(=O)c3c(C)ncnc3C)CC2)C[C@@H]1C`
Marked response: False

Exam item: Outcome? `CC[C@@]1(O)C(=O)OCc2c1cc1n(c2=O)Cc2c-1nc1cc(F)c(C)c3c1c2[C@@H](N)CC3`
Marked response: True

Exam item: Outcome? `CC(C)[C@H]1C(=O)N[C@@H](CCCN=C(N)N)C(=O)NCC(=O)N[C@@H](CC(=O)O)C(=O)N[C@H](Cc2ccccc2)C(=O)N1C`
Marked response: False

Exam item: Outcome? `COC(C)(C)CCn1nc(Nc2c(C)cccc2C)c2cnc(Nc3ccc(OCCN4CCCC4)c(F)c3)nc21`
Marked response: True

Exam item: Outcome? `CN(C)CCOc1ccc(/C(=C(/CCCl)c2ccccc2)c2ccccc2)cc1`
Marked response: False

Exam item: Outcome? `CCN1CCN(Cc2ccc(NC(=O)c3ccc(C)c(/C=C/c4cnc5[nH]ccc5c4OC)c3)cc2C(F)(F)F)CC1`
Marked response: True

Exam item: Outcome? `NS(=O)(=O)Oc1ccc2c3c(c(=O)oc2c1)CCCCC3`
Marked response: False

Exam item: Outcome? `Cc1ccc(C(=O)N(CCCN)[C@@H](c2nc3cc(Cl)ccc3c(=O)n2Cc2ccccc2)C(C)C)cc1`
Marked response: True

Exam item: Outcome? `COc1cc(Nc2cnc(C#N)c(O[C@H](C)CN(C)C)n2)ncc1-c1cnn(C)c1`
Marked response: True

====

measured.target: Retinaldehyde dehydrogenase 3 (Homo sapiens) (UniProt P47895)
test: qHTS for Inhibitors of the Aldehyde Dehydrogenase Family (ALDH1A3) Confirmatory screens (AID 2061311); further: nearly all actives have a fitted effect of over 60% in size
experimental.parameters: ALDH inhibition qHTS; series mostly up to 46 µM
Inconclusive results are not listed. Calls of active or inactive are those of the source. Calls come from the whole dose curve; as a rule, active = well fitted inhibition curve with a large enough effect; inconclusive = small, poorly fitted or top-dose-only effect; inactive = no such curve, though single readings can be large or run the other way.
Please reply with one of these outcomes: 1 (active), 0 (inactive)

These recorded examples may help you get a feel for the data.
- compound: "CC1(C)CC[C@]2(C(=O)O)CC[C@]3(C)C(=CCC4[C@@]5(C)C[C@@H](O)[C@H](O)[C@@](C)(CO)C5CC[C@]43C)[C@@H]2[C@@H]1O (stereo partly specified)"
  assigned.class: 1
- compound: "COc1ccc(Nc2cc(O)c3ncccc3c2)cc1"
  assigned.class: 1
- compound: "COc1cc(CNC(=O)c2ccc(NC(=O)N3CCCCc4ccccc43)cc2)cc(OC)c1OC"
  assigned.class: 0

Exam item: Outcome? CN(C)c1ccc(C(=O)NCC(=O)OC(C(=O)Nc2cc(C(F)(F)F)ccc2Cl)c2ccccc2)cc1 (stereo unspecified)
Marked response: 1

Exam item: Outcome? `COc1cccc(CCC(=O)NCc2nnc3c(-c4nc(C)no4)cccn23)c1`
Marked response: 0

Exam item: Outcome? `Cn1cc(-c2cnc(Nc3ccncc3)c3c2CCO3)cn1`
Marked response: 0

Exam item: Outcome? `CCN(CC)c1nc2ccccc2nc1C(=O)Nc1ccc(C(C)=O)cc1`
Marked response: 0

Exam item: Outcome? `CCOc1ccc(NC(=O)NCCCN2CCN(c3ccc(OC)cc3)CC2)cc1`
Marked response: 0

Exam item: Outcome? `CCc1ccc(O)c(C(=O)c2cnc3cc(-c4ccc(C)cc4)nn3c2)c1`
Marked response: 0

Exam item: Outcome? CN(C)Cc1nnc(C2CC(NC(=O)c3ccc4scnc4c3)C2)n1C (stereo unspecified)
Marked response: 0

Exam item: Outcome? `NC(=O)C1CCN(c2nc(-c3ccccc3-c3ccccc3)cs2)CC1`
Marked response: 1

Value source: PubChem BioAssay (NCATS)
